PROTOCOL NOTES: yeast display, Sf9 membrane polyspecificity reagent, FACS + sequencing; frameworks hold sequencing errors

ITEM SEQUENCE: QVQLVESGGGLVQAGGSLRLSCAASGSIFPANAMGWYRQAPGKEWEFVAAINWSTGTTYYADSVKGRFTIARDNAKNTVYLQMNRLKPEETPVYYCNASDQAKYDYWGQGTQVTVSS
polyreactivity (PSR sort gate): low polyreactivity

ITEM SEQUENCE: QDQLVESGGGLVQAGGSLRLSCAASGRTFYCYAMGGYRQAPGKDRELVAAISSGDITSYADSVKGRFTISRDNAKNTVYLQMNSVKPEDTAVYYCAAEVVAWSLYEDFKTYDYWGQGTQVTVSS
polyreactivity (PSR sort gate): low polyreactivity

ITEM SEQUENCE: QVQLVESGGGLVQAGGSLRLSCAASGSIFKSYAMGWYRQAPGKERELVAAITWRSGRTYYADSVKGRFTISRDNAKNTVYLQMTSLKPEDTAVYYCAADDTSYYIYSYDYWGQGTQVTVSS
polyreactivity (PSR sort gate): low polyreactivity

ITEM SEQUENCE: QVQLVESGGGLVQAGGSLRLSCAASGFTFFYYVMGWYRQAPGKERDLVAAITRGGSTYYADSVKGRFTISRDNAKNTVDLQMNSLKPEDTAVYYCNKVLRVYLGRFEYYSWGQGTQVTVSS
polyreactivity (PSR sort gate): high polyreactivity

ITEM SEQUENCE: QVQLVESGGGLVQAGGSLRLSCAASGGTFRAYVMGWYRQAPGKERELVAAISRSGTRTYYADSVKGRFTISRDNAKNTVYSQLNSLKPEDTAVYYCAAAANSWLFDYWGQGTQVTVSS
polyreactivity (PSR sort gate): high polyreactivity

ITEM SEQUENCE: QVQLVESGGGLVQAGGSLRLSCAASGRILKVYAMGWYRQAPGKERELVAAISVNGGRTYYADSVKGRFTISRDNAKNTVYLQMNSLKPEDTAVYYCAKRLYKPGNVFYSVDQSDYWGQGTQVTVSS
polyreactivity (PSR sort gate): low polyreactivity

ITEM SEQUENCE: QVQLVESGGGLVQAGGSLRLSCAATGFRFVHTAIGWYRKAPGKERELVAAIRSRGGSTYYADSVKGRFTISRDNAKNTVYLQMKSLKPEDTAVYYCAADGAVDSSSRKFGYWGQGTQVNVSS
polyreactivity (PSR sort gate): low polyreactivity

ITEM SEQUENCE: QGQLVESGGGLVQAGGSLRLSCAASGRIFYTNAMGGYRQARGKERELVAGINYSGGNTYADSVKGRFTISRDNAKNTVYLQMNSLKPEDTAVYYCAARGWSHYGYGDNYRHGYWGQGTQVTVSS
polyreactivity (PSR sort gate): high polyreactivity

ITEM SEQUENCE: QVQLVESGGGLVQAGGSLRLSCAASGSIFRSNAMGWYRQAPGKERELVAAISWRGGRTYYADSVKGRFTISRDNAKNSVYLLMNSLKPEDTAVYYCATEVEPYAYGYWGQGTQVTVSS
polyreactivity (PSR sort gate): high polyreactivity

ITEM SEQUENCE: QVKLQESGDGLVQAGGSLRLSSAASGTIFSDYGMGGYRQAPGKERELLAGISDGCNTNYTDSVKGRFTISRDNAHRVSADEQPETGGYRGVLLRGSERWLLFFVYWGQGTQVTVSS
polyreactivity (PSR sort gate): high polyreactivity

ITEM SEQUENCE: QVQLVETGGGLVQAGGSLRLSCAASVRIIWGNAMGWYRQAPGTERELVAALRASGGSTHYADSVKGRFTISRDNAKKTVYFQINSLKPEDTAVYYCIAVKRVGAYWGRSFAYYYWGQGTQVTVSS
polyreactivity (PSR sort gate): high polyreactivity
